- test-details: Half life in dog
- Assay type: ADME, Canis lupus familiaris
- condition-set: in vivo
parameter: half-life (min)
Express the result in min but write the number alone.

*Q* Which half-life value is on record for "Cc1ccc2c(=O)[nH]c(-c3ccc(C(C)(C)O)cc3)cn12" ?
*A* 35.6

====

- target-or-system: Protein mono-ADP-ribosyltransferase PARP14 (Homo sapiens)
- Sequence (Q460N5 whole entry, the tested form may be a part): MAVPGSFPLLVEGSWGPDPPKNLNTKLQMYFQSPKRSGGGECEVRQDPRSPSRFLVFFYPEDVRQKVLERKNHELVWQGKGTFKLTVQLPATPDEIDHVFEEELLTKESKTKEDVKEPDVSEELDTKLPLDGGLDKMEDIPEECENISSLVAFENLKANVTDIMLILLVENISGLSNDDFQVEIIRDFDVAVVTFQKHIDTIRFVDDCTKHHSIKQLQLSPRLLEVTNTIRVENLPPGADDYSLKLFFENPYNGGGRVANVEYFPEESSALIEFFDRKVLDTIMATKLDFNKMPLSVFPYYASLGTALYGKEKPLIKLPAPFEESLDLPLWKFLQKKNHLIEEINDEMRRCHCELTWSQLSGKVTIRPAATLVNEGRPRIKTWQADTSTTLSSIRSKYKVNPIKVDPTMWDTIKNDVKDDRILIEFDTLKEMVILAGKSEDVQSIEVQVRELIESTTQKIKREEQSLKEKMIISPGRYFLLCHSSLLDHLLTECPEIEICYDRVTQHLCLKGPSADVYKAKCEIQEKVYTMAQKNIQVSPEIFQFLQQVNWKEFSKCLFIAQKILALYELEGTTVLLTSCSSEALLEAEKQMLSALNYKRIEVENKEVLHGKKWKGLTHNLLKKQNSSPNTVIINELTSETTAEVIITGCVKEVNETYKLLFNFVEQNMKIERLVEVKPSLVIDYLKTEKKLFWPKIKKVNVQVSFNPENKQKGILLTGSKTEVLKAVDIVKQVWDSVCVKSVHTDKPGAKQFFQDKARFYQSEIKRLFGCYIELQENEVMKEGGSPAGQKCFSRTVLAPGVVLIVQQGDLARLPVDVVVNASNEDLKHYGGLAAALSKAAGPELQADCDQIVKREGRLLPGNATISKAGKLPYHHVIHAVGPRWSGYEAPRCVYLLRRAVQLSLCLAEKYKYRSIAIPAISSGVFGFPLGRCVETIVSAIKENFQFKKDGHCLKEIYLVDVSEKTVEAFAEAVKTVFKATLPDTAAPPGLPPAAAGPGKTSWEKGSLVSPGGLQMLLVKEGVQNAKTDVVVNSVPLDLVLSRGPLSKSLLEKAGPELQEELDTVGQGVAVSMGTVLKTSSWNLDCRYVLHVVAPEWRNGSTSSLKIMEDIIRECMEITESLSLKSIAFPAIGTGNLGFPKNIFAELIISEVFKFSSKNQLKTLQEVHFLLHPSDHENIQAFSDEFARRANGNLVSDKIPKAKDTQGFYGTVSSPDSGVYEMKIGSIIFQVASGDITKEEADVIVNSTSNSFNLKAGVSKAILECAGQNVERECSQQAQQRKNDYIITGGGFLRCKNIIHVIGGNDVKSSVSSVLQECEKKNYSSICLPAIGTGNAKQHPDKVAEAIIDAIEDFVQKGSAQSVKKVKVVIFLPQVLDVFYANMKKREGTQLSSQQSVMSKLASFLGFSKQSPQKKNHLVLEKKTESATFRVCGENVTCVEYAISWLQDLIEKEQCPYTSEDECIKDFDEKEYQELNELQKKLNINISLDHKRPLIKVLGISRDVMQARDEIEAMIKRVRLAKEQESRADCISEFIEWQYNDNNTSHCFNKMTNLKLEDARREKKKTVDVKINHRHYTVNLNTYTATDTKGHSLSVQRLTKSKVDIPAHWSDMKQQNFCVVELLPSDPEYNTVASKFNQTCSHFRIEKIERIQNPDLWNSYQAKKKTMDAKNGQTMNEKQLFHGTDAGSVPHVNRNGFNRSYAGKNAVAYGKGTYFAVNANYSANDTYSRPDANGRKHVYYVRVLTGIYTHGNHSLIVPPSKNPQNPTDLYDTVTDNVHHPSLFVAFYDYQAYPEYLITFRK
- test-details: Inhibition of N-terminal GST/6xHis/TEV-tagged human recombinant PARP14 (1470 to 1801 residues) expressed in Sf9 insect cells by chemiluminescence assay
parameter: IC50

*Q* Record "Cc1ccc2c(=O)[nH]c(-c3ccc(C(C)(C)O)cc3)cn12" : what is its IC50 with Protein mono-ADP-ribosyltransferase PARP14 (Homo sapiens)?
*A* > 10 µM

====

- target-or-system: CYP450 (Homo sapiens, UniProt P04798+P05177+P05181+P08684+P10632+P10635+P11509+P11712+P13584+P20813+P20815+P20853+P24462+P24903+P33260+P33261+P51589+P78329+P98187+Q02928+Q08477+Q16678+Q16696+Q5TCH4+Q6VVX0+Q7Z449+Q8TAV3+Q96SQ9+Q9HB55)
- test-details: Inhibition of CYP450 (unknown origin)
- Format: ADME, protein assay
pIC50: −log10 of the molar value.
parameter: pIC50

*Q* Which value of pIC50 has been reported for "Cc1ccc2c(=O)[nH]c(-c3ccc(C(C)(C)O)cc3)cn12" in the records?
*A* < 4.30

====

- test-details: Half life in human
- Format: ADME
parameter: half-life (h)
Give your result in h as a bare value.

*Q* # get_value(readout='half-life', item= "Cc1ccc2c(=O)[nH]c(-c3ccc(C(C)(C)O)cc3)cn12" )
*A* 6.9

====

- target-or-system: Poly [ADP-ribose] polymerase tankyrase-2 (Homo sapiens, UniProt Q9H2K2)
- Sequence (Q9H2K2 whole entry): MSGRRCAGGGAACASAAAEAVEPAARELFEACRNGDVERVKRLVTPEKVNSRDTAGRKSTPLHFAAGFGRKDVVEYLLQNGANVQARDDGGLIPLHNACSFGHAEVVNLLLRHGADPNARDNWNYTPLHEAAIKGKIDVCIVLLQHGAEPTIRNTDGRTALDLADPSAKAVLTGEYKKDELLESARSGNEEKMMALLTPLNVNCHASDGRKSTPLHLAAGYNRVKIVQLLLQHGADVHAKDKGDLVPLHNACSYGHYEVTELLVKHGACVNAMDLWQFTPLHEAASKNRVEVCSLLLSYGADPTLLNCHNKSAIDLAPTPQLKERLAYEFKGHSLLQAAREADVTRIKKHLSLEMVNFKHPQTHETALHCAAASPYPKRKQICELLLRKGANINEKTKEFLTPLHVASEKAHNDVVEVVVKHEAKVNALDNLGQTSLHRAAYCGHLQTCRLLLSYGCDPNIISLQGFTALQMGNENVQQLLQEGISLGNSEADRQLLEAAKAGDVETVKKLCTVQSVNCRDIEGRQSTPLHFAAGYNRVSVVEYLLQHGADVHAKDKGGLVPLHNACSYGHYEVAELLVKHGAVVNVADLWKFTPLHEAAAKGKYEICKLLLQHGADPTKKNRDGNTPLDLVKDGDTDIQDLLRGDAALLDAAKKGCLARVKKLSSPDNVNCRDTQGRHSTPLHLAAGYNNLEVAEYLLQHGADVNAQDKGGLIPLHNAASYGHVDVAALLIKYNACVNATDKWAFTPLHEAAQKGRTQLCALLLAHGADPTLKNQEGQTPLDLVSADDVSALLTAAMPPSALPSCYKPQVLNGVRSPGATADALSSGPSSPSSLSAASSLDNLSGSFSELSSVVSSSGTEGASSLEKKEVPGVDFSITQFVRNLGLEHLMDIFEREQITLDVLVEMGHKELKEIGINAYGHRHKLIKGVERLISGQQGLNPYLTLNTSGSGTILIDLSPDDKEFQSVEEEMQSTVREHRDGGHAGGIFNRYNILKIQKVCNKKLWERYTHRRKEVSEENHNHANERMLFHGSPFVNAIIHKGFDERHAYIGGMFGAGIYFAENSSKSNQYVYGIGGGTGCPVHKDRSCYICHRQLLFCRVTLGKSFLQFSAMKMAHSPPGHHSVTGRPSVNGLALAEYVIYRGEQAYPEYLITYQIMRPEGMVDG
- test-details: Inhibition of TNKS2 (unknown origin)
parameter: pIC50
The quantity pIC50 is defined as the negative base-10 logarithm of the molar concentration.

*Q* Need pIC50, item "Cc1ccc2c(=O)[nH]c(-c3ccc(C(C)(C)O)cc3)cn12"
*A* 8.85

====

- test-details: Unbound fraction in human plasma
- Assay type: ADME, cell-free
parameter: fraction unbound

*Q* Any idea what fraction unbound was measured for "Cc1ccc2c(=O)[nH]c(-c3ccc(C(C)(C)O)cc3)cn12" ?
*A* 0.096

====

- test-details: Oral bioavailability in dog
- Type: ADME, organism-based, Canis lupus familiaris
- condition-set: in vivo
parameter: bioavailability (%)
Please reply with the bare figure in % and do not write the unit itself.

*Q* Recorded bioavailability of "Cc1ccc2c(=O)[nH]c(-c3ccc(C(C)(C)O)cc3)cn12" , please.
*A* 37

====

Below, each of the compounds is paired with its reported pIC50 value.
- target-or-system: Poly [ADP-ribose] polymerase tankyrase-2 (Homo sapiens)
- test-details: Inhibition of TNKS2 (unknown origin) using biotinylated NAD as substrate assessed as inhibition of autoPARsylation activity incubated for 1 hr by ELISA
Here pIC50 is given on a logarithmic scale as minus log10 of the concentration in mol/L.

Would you please look over these solved cases?
Cc1ccc2c(=O)[nH]c(-c3ccc(C(C)(C)OCCO)cc3)cn12
8.82
Cc1ncc2c(=O)[nH]c(-c3ccc(C(C)(C)O)cc3)cn12
7.85
Cc1cc2c(=O)[nH]c(-c3ccc(C(C)(C)O)cc3)cn2c1
8.10
CC(C)(O)c1ccc(-c2cn3c(F)ccc3c(=O)[nH]2)cc1
8.21
Cc1ccc2c(=O)[nH]c(-c3ccc([C@@](C)(O)CO)cc3)cn12
8.77
Cc1ccc2c(=O)[nH]c(-c3ccc([C@](C)(O)CCO)cc3)cn12
9.00
Cc1cc2c(=O)[nH]c(-c3ccc(C(C)(C)O)cc3)nn2n1
5.59
Cc1csc2c(=O)[nH]c(-c3ccc(C(C)(C)O)cc3)nc12
8.82
Cc1ccc2c(=O)[nH]c(-c3ccc(C4(O)CC4)cc3)cn12
9.00
Cc1ccc2c(=O)[nH]c(-c3ccc(C(C)(C)O)cc3)nn12
9.05

Note: attention shifts to another entry.
*Q* Requested read-out: pIC50. Entry: "CC(C)(C)c1ccc(-c2cn3cncc3c(=O)[nH]2)cc1"
*A* 7.46

====

Below: a set of entries, each annotated with reported IC50.
- target-or-system: Poly [ADP-ribose] polymerase tankyrase-1 (Homo sapiens)
- Sequence (O95271 whole entry): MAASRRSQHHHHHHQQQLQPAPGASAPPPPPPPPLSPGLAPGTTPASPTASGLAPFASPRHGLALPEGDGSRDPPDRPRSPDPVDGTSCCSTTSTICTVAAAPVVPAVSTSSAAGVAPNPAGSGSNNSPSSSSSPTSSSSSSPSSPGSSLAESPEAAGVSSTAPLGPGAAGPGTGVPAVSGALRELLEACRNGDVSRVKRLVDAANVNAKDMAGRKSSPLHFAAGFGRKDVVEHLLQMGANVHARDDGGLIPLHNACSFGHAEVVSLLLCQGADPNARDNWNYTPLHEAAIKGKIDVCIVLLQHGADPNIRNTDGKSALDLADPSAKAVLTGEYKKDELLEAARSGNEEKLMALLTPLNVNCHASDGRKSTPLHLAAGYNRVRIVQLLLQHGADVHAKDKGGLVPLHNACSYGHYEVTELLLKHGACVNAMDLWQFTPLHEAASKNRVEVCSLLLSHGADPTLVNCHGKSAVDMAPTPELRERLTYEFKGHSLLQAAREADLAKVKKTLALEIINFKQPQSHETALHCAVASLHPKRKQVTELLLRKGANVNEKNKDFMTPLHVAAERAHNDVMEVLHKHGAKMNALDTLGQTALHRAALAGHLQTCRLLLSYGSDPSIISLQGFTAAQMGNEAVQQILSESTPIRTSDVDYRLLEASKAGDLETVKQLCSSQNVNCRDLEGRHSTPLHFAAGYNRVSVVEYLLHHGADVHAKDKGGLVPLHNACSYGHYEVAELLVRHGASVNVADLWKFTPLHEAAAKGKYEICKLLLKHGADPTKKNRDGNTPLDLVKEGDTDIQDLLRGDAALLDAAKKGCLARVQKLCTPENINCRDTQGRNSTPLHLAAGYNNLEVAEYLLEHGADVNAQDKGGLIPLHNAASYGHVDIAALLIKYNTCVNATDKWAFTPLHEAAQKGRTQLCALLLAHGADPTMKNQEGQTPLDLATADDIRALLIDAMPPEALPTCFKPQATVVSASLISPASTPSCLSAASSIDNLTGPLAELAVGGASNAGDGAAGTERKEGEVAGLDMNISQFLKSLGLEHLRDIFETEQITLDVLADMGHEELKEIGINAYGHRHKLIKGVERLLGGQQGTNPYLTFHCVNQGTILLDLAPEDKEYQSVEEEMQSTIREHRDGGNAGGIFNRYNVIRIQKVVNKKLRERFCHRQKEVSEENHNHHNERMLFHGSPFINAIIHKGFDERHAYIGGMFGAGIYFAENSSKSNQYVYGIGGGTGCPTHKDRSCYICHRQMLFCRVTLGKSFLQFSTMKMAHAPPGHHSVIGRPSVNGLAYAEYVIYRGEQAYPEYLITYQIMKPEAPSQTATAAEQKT
- test-details: Inhibition of TNKS1 (unknown origin) using biotinylated NAD as substrate assessed as inhibition of autoPARsylation activity incubated for 1 hr by ELISA

*Q* So what's the measured IC50 for this one? "Cc1ccc2c(=O)[nH]c(-c3ccc([C@](C)(O)CCO)cc3)cn12"
*A* 0.8 nM

*Q* For "Cc1cc2c(=O)[nH]c(-c3ccc(C(C)(C)O)cc3)cn2n1" , what is its reported IC50?
*A* 13 nM

*Q* I am curious: what IC50 value has been reported for "Cc1ccc2c(=O)[nH]c(-c3ccc(C4(O)COC4)cc3)cn12" ?
*A* 2.5 nM

*Q* Consider the compound "CC(C)(C)c1ccc(-c2cn3ccnc3c(=O)[nH]2)cc1" and give its measured IC50.
*A* 21 nM

*Q* Entry "CC(C)(O)c1ccc(-c2cn3cc(F)cc3c(=O)[nH]2)cc1" has what IC50?
*A* 1.9 nM

*Q* For the compound "CC(C)(O)c1ccc(-c2cn3cccc3c(=O)[nH]2)cc1" , what IC50 is on record?
*A* 2.7 nM

*Q* Which measured IC50 value corresponds to "Cc1ccc2c(=O)[nH]c(-c3ccc([C@](C)(O)CO)cc3)cn12" ?
*A* 2.6 nM

*Q* Looking for the measured IC50 of "CC(C)(O)c1ccc(-c2cn3c(CO)ccc3c(=O)[nH]2)cc1" , can you help?
*A* 9.8 nM

====

- test-details: Unbound fraction in monkey plasma
- Format: ADME, cell-free, Macaca mulatta
- condition-set: rhesus monkey
parameter: fraction unbound
Answer with a number only.

*Q* Suppose we examine the compound "Cc1ccc2c(=O)[nH]c(-c3ccc(C(C)(C)O)cc3)cn12" ; what fraction unbound value has been reported?
*A* 0.21
